# Measured target: T1, Peptide-25 (cysteine pairing not given here; also: biotinylated (site not given here))
# T1 peptide: VDFCKIYSWPVCHQ
# Method notes: ELISA, Fab on captured biotin-peptide
Where no end group is shown, it is not given here.
Measured EC50 values are reported for all entries that follow.
Assay endpoint: EC50

Binder	Reported
TBD-11 (HC R98A) (Fab, V domains shown, Fab; also called HC R98A mutant) VH: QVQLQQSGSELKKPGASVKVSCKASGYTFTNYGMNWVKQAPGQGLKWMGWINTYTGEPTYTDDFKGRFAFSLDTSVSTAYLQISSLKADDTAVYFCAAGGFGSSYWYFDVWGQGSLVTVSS VL: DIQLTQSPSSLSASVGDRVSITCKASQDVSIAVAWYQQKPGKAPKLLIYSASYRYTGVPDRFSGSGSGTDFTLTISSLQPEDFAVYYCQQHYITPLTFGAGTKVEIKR	> 1000 nM
TBD-1 wt (Fab, V domains shown, Fab; the heavy chain entry is VH-CH1; also called wild-type anti-TROP2 Fab (hRS7); TROP2 Fab) VH: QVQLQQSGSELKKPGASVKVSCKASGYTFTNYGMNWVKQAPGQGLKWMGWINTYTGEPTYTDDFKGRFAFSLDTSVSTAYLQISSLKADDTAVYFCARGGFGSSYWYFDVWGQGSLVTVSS VL: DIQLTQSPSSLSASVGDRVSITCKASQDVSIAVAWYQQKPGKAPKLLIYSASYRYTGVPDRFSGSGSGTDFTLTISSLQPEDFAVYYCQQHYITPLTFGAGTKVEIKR	48.2 nM
TBD-22 (HC D109A) (Fab, V domains shown, Fab; also called HC D109A mutant) VH: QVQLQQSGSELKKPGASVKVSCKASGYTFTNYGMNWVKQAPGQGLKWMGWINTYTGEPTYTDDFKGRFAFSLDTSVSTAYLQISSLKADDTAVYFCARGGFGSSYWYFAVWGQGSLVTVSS VL: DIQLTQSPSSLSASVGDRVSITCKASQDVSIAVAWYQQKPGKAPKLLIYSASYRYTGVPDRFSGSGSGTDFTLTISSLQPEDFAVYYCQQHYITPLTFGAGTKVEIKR	1.9 nM
